Numbers sourced from PubChem BioAssay (NCI).

test: NCI Yeast Anticancer Drug Screen. Data for the cln2 rad14 strain (AID 165);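 also: 0% = growth equal to vehicle treated cultures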; settings: S. cerevisiae cln2 rad14 strain, at 50.0 µM, hits give high values
Compounds without any hit were thinned out: in the full panel of roughly 79,000, 15% have a hit.
Measure: growth inhibition (%)

Compound	Reported Value
c1ccc(CCn2c(-c3ccccn3)nc3ccccc32)nc1	-24.5
CCOC(=O)c1[nH]c2cccc3c2c1CC[C@H](NC(=O)C(F)(F)F)C3=O	18.2
O=S(=O)(O)c1cc[n+]([O-])cc1	32.5
O=c1cc(-c2ccc(F)cc2)oc2ccccc12	0.95
O=C(Nc1nc(C23CC4CC(CC(C4)C2)C3)cs1)c1cc2cc([N+](=O)[O-])ccc2oc1=O	-34.7
C[C@@H]1C[C@@H]2C(=O)N(c3ccccc3)C(=O)[C@@H]2c2[nH]c3ccc(Br)cc3c21	0.25
CN(Cc1ccc(Cl)cc1)C(=O)NCCCCCCNC(=O)N(C)Cc1ccc(Cl)cc1	96.2
CN(C)C(=S)Oc1ccc([N+](=O)[O-])cc1Cl	19.4
Fc1ccc(N=Cc2ccc(C=Nc3ccc(F)cc3)cc2)cc1	10.2
C=C1CCCCCCCCCCC12SCCCS2	-11.9
O=C(CC(=O)c1ccccc1)Nc1ccc(-c2nc3ccccc3c(=O)[nH]2)cc1	1.9
C#CC1(c2ccccc2)OCCO1	4.55
O=[N+]([O-])c1cc(N(c2ccccc2)c2ccccc2)cc([N+](=O)[O-])c1	9.95
C=CCNC(=S)Nc1cccc(C(C)OC(=O)NC(C)(C)C)c1 (stereo not drawn)	-5.8
N#CCC(=O)c1ccccc1C(=O)O	4.65
CC(C(=O)OCc1ccccc1)(c1ccco1)N1C(=O)OC(c2ccccc2)C1c1ccccc1 (stereo not drawn)	-3.5
Nc1c(Br)c(Cl)c(Br)c2c1-c1ccc(Cl)cc1C2	-19.9
COC(=O)C(/C(=N/NC(N)=O)C(=O)Nc1c(C)cccc1C(C)(C)C)c1nc2ccc(Cl)cc2[nH]c1=O (stereo not drawn)	3.3
